Molecular target: T1, Recombinant human OX40-His protein (human, UniProt P43489 29-214, limits assumed)
T1 construct: Recombinant antigen protein; also called recombinant human OX-40 protein; human OX-40 protein; not shown: His tag
T1 sequence (looked up): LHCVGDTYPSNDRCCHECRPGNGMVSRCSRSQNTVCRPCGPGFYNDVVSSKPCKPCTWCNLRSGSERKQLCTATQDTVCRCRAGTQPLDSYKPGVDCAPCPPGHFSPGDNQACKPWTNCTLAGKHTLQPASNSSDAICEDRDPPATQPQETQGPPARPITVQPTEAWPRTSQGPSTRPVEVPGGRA
Assay: kinetic ranking (RU, 1:1 binding model), prokaryotically expressed antibody product as ligand, OX40-His as analyte
ASSAY ENDPOINT: Kd (nM)

binder="AH02906, prokaryotically expressed antibody product (back-mutation screening) (Fab, V domains shown) VH: QVQLVQSGAEVKKPGASVKVSCKASGYTFTDYSMHWVKQAPGQGLEWMGWISTETGEPTYADDFKGRFTITLDTSASTAYMELSSLRSEDTAVYYCARVRPWYLAVWGQGTLVTVSS VL: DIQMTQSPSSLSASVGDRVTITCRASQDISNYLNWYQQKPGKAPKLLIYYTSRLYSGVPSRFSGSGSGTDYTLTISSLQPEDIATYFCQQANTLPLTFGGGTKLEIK" assay_endpoint=Kd unit_label=nM endpoint_value=15.6
binder="AH02913, prokaryotically expressed antibody product (back-mutation screening) (Fab, V domains shown) VH: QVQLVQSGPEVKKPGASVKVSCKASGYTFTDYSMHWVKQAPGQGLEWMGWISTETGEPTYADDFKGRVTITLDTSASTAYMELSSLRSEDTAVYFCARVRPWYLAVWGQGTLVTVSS VL: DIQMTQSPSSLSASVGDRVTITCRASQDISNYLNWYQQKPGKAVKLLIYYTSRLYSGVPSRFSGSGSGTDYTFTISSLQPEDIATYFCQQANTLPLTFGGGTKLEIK" assay_endpoint=Kd unit_label=nM endpoint_value=12.5
binder="AH02921, prokaryotically expressed antibody product (back-mutation screening) (Fab, V domains shown) VH: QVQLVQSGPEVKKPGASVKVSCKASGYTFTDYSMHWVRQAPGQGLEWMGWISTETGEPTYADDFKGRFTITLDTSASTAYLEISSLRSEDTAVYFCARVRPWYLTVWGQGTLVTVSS VL: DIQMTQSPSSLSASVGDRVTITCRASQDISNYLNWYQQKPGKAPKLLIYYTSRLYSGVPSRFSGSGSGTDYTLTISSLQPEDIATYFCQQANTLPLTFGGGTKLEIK" assay_endpoint=Kd unit_label=nM endpoint_value=3.35

These measurements were taken from patent US20220119540A1.
